- Tested on: Mycobacterium tuberculosis
- test_details: AntiMycobacterium tuberculosis activity day 10 in 7H9/2.5mM butyrate/pH6/0.1mM nitrite MIC90 (uM)
- Type: functional
- applied_conditions: 240 h
Listing of recorded MIC90 by entry.
test_readout: MIC90 (µM)

{"columns": ["molecule", "unit_of_measure", "result_comparator", "numeric_value"],
 "data": [
  ["O=C(COc1cccc(F)c1)Nc1nc(-c2ccccn2)cs1", "µM", ">", 50],
  ["O=C(NC1=NCCS1)c1sc2cc(F)ccc2c1Cl", "µM", "=", 3.12],
  ["CC(=O)NC[C@H]1CN(c2ccc(N3CCSCC3)c(F)c2)C(=O)O1", "µM", "=", 0.39],
  ["CC(=O)NCC1CN(c2ccc(-c3ccc(CO)cc3)c(F)c2)C(=O)O1 (stereo not given)", "µM", "=", 1.5],
  ["CCc1ccc(S(=O)(=O)Nc2cc(CN3CCN(CCC(C)C)CC3)ccc2C)cc1", "µM", ">", 50]
]}
